# assayedTarget: uPAR-expressing HEC-265 human endometrial adenocarcinoma cells (Homo sapiens, UniProt Q03405)
# Sequence (Q03405 23-335): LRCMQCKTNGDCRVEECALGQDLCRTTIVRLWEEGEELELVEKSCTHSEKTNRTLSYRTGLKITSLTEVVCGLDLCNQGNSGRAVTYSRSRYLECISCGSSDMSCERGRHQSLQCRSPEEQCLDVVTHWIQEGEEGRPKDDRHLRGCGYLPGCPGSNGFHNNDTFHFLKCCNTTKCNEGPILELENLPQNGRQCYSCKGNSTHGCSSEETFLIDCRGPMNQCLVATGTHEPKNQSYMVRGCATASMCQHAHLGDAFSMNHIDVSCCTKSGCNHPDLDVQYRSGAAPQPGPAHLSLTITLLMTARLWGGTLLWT
Where a SMILES comes first, the peptide text is derived from it. Bridges are numbered along the chain shown (N, C = ends). [ ]: non-standard residue; d: D form. The star is where a group is joined. DOTA = O=C(O)CN1CCN(CC(=O)O)CCN(CC(=O)*)CCN(CC(=O)O)CC1; Hyp = O=C(O)[C@@H]1C[C@@H](O)CN1; Pentanoyl(4-Me) = CC(C)CCC(=O)*; Cit = NC(=O)NCCC[C@H](N)C(=O)O; Nva = CCC[C@H](N)C(=O)O; Hexanoyl = CCCCCC(=O)*; Pentanoyl = CCCCC(=O)*
Recorded IC50, one value per entry.

Consider the reported IC50 for these molecules:
1) CC[C@H](C)[C@@H]1NC(=O)[C@H]2CCCN2C(=O)[C@@H]2CCCN2C(=O)[C@H](Cc2ccccc2)NC(=O)[C@H](Cc2ccc(O)cc2)NC(=O)[C@H](CCC(N)=O)NC(=O)[C@H](CCCNC(N)=O)NC(=O)[C@@H](NC(=O)CCC(C)C)CSSC[C@@H](C(N)=O)NC(=O)[C@H](CC(C)C)NC1=O [UPAR-305] ({Pentanoyl(4-Me)}-C[Cit]QYFP[dP]ILC-NH2; disulfide 1-10) : ≥ 0.126 µM
2) CCCCC(=O)N[C@H]1CSSC[C@@H](C(N)=O)NC(=O)[C@H](CCC)NC(=O)[C@H]([C@@H](C)CC)NC(=O)[C@@H]2C[C@@H](O)CN2C(=O)[C@@H]2CCCN2C(=O)[C@H](Cc2ccccc2)NC(=O)[C@H](Cc2ccc(O)cc2)NC(=O)[C@H](CCC(N)=O)NC(=O)[C@H](Cc2ccc(O)cc2)NC1=O [UPAR-454] (Pentanoyl-CYQYFP[Hyp]I[Nva]C-NH2; disulfide 1-10) : ≤ 0.01 µM

Moving on to another molecule below.
Look at this molecule and give its reported IC50. CCCCCC(=O)N[C@@H](CC(=O)O)C(=O)N[C@@H](CC(C)C)C(=O)N[C@H]1CSSC[C@@H](C(N)=O)NC(=O)[C@H](CC(C)C)NC(=O)[C@H]([C@@H](C)CC)NC(=O)[C@H](C)NC(=O)[C@@H]2CCCN2C(=O)[C@H](Cc2ccccc2)NC(=O)[C@H](Cc2ccc(O)cc2)NC(=O)[C@H](CCSC)NC(=O)[C@H](CCCCNC(=O)CN2CCN(CC(=O)O)CCN(CC(=O)O)CCN(CC(=O)O)CC2)NC1=O [UPAR-235] (Hexanoyl-DLCK(DOTA)MYFPAILC-NH2; disulfide 3-12)
≤ 0.01 µM

====

# assayedTarget: human uPAR (uPAR-Fc) (Homo sapiens, UniProt Q03405)
# Construct: comprising amino acids Leu23-Arg303 according to UniProt entry Q03405.1; purchased R&D Systems 10378-UK-100
# Sequence (Q03405 23-303): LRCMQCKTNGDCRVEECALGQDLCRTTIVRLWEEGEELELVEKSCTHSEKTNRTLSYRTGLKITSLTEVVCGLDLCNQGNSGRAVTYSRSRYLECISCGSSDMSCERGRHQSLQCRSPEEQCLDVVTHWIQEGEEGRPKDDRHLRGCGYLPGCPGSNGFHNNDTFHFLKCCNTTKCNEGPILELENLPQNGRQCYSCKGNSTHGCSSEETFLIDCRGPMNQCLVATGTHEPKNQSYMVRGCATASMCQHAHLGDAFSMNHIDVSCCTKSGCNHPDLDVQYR
# methodDescription: Surface plasmon resonance (SPR) assay, single cycle kinetics
# Type: binding
# condition: pKD category for uPAR SPR activity assay; uPAR-Fc on Protein A-Chip, 25°C; read-out: pKD CAT (converted)
# Description: Surface plasmon resonance (SPR) is an optical technique used to measure molecular interactions in real time. SPR occur when plane-polarized light hits a metal film under total internal reflection conditions. […] In an SPR experiment, one molecule (i.e. uPAR) is immobilized on a sensor chip and binding to a second molecule (i.e. test compounds) is measured under flow. […] This response is measured in resonance units (RU). […]
*1 amine or outer side, *2 acyl side, *3 side chain or, on linkers, in order; H or OH if unused. Where a SMILES comes first, the peptide text is derived from it. Bridges are numbered along the chain shown (N, C = ends). [ ]: non-standard residue; d: D form. The star is where a group is joined. DOTA = O=C(O)CN1CCN(CC(=O)O)CCN(CC(=O)*)CCN(CC(=O)O)CC1; NOTA = O=C(O)CN1CCN(CC(=O)O)CCN(CC(=O)*)CC1; Pro(cis-4-F) = O=C(O)[C@@H]1C[C@H](F)CN1; Dopa = N[C@@H](Cc1ccc(O)c(O)c1)C(=O)O; Hyp = O=C(O)[C@@H]1C[C@@H](O)CN1; Pentanoyl(4-Me) = CC(C)CCC(=O)*; Cit = NC(=O)NCCC[C@H](N)C(=O)O; Butoxycarbonyl = CCCCOC(=O)*; Nva = CCC[C@H](N)C(=O)O; Pentanoyl = CCCCC(=O)*; CH2 = C([*:1])[*:2]
Known Kd of a selection of molecules

Here is how some molecules turned out for Kd.
1. CC[C@H](C)[C@@H]1NC(=O)[C@@H](C)NC(=O)[C@@H]2CCCN2C(=O)[C@H](Cc2ccccc2)NC(=O)[C@H](Cc2ccc(O)cc2)NC(=O)[C@H](CCC(N)=O)NC(=O)[C@H](CCCNC(N)=O)NC(=O)[C@@H](NC(=O)CCC(C)C)CSSC[C@@H](C(=O)O)NC(=O)[C@H](CC(C)C)NC1=O [UPAR-131] ({Pentanoyl(4-Me)}-C[Cit]QYFP[dA]ILC-OH; disulfide 1-10) : > 100 nM
2. CC[C@H](C)[C@@H]1NC(=O)[C@H](C)NC(=O)[C@@H]2CCCN2C(=O)[C@H](Cc2ccccc2)NC(=O)[C@H](Cc2ccc(O)cc2)NC(=O)[C@H](CCC(N)=O)NC(=O)[C@H](CCCNC(=N)N)NC(=O)[C@@H](NC(=O)[C@H](CC(C)C)NC(=O)[C@H](CC(=O)O)NC(C)=O)CSSC[C@@H](C(N)=O)NC(=O)[C@H](CC(C)C)NC1=O [UPAR-290] (Ac-DLCRQYFPAILC-NH2; disulfide 3-12) : < 1.58 nM
3. CCCCC(=O)N[C@H]1CSCSC[C@@H](C(N)=O)NC(=O)[C@H](CCC)NC(=O)[C@H]([C@@H](C)CC)NC(=O)[C@@H]2C[C@@H](O)CN2C(=O)[C@@H]2CCCN2C(=O)[C@H](Cc2ccccc2)NC(=O)[C@H](Cc2ccc(O)cc2)NC(=O)[C@H](CCC(N)=O)NC(=O)[C@H](CCCNC(N)=O)NC1=O [UPAR-215] (Pentanoyl-C[Cit]QYFP[Hyp]I[Nva]C-NH2; linker 1-10 via CH2) : 1.58 to 10 nM
4. CCCCOC(=O)N[C@H]1CSSC[C@@H](C(N)=O)NC(=O)[C@H](CCC)NC(=O)[C@H]([C@@H](C)CC)NC(=O)[C@@H]2C[C@@H](O)CN2C(=O)[C@@H]2C[C@H](F)CN2C(=O)[C@H](Cc2ccccc2)NC(=O)[C@H](Cc2ccc(O)c(O)c2)NC(=O)[C@H](CCCCNC(=O)CN2CCN(CC(=O)O)CCN(CC(=O)O)CC2)NC(=O)[C@H]([C@@H](C)O)NC1=O [UPAR-250] (Butoxycarbonyl-CTK(NOTA)[Dopa]F[Pro(cis-4-F)][Hyp]I[Nva]C-NH2; disulfide 1-10) : < 1.58 nM

Lab note: need Kd for CCCCOC(=O)N[C@H]1CSSC[C@@H](C(N)=O)NC(=O)[C@H](CCC)NC(=O)[C@H]([C@@H](C)CC)NC(=O)[C@@H]2C[C@@H](O)CN2C(=O)[C@@H]2C[C@H](F)CN2C(=O)[C@H](Cc2ccccc2)NC(=O)[C@H](Cc2ccc(O)c(O)c2)NC(=O)[C@H](CCCCNC(=O)CN2CCN(CC(=O)O)CCN(CC(=O)O)CCN(CC(=O)O)CC2)NC(=O)[C@H]([C@@H](C)O)NC1=O [UPAR-249] (Butoxycarbonyl-CTK(DOTA)[Dopa]F[Pro(cis-4-F)][Hyp]I[Nva]C-NH2; disulfide 1-10) on human uPAR (uPAR-Fc) (Homo sapiens, UniProt Q03405), anyone have it?
< 1.58 nM

====

# assayedTarget: human uPAR (uPAR-Fc) (Homo sapiens)
# Construct: comprising amino acids Leu23-Arg303 according to UniProt entry Q03405.1; purchased R&D Systems 10378-UK-100
# methodDescription: Surface plasmon resonance (SPR) assay, single cycle kinetics
# Assay type: binding
# condition: pKD category for uPAR SPR activity assay; uPAR-Fc on Protein A-Chip, 25°C; read-out: pKD CAT (converted)
*1 amine or outer side, *2 acyl side, *3 side chain or, on linkers, in order; H or OH if unused. Where a SMILES comes first, the peptide text is derived from it. Bridges are numbered along the chain shown (N, C = ends). [ ]: non-standard residue; d: D form. The star is where a group is joined. DOTA = O=C(O)CN1CCN(CC(=O)O)CCN(CC(=O)*)CCN(CC(=O)O)CC1; Hyp = O=C(O)[C@@H]1C[C@@H](O)CN1; Cit = NC(=O)NCCC[C@H](N)C(=O)O; Suc = O=C(CCC(=O)[*:2])[*:1]; Nva = CCC[C@H](N)C(=O)O
testReadout: Kd

Return Kd measured with human uPAR (uPAR-Fc) (Homo sapiens) given this compound: CCC[C@H](NC(=O)CCC(=O)O)C(=O)N[C@H]1CSSC[C@@H](C(N)=O)NC(=O)[C@H](CCC)NC(=O)[C@H]([C@@H](C)CC)NC(=O)[C@@H]2C[C@@H](O)CN2C(=O)[C@@H]2CCCN2C(=O)[C@H](Cc2ccccc2)NC(=O)[C@H](Cc2ccc(O)cc2)NC(=O)[C@H](CCCCNC(=O)CN2CCN(CC(=O)O)CCN(CC(=O)O)CCN(CC(=O)O)CC2)NC(=O)[C@H](CCCNC(N)=O)NC1=O [UPAR-293] (Suc-[Nva]C[Cit]K(DOTA)YFP[Hyp]I[Nva]C-NH2; disulfide 2-11)
< 1.58 nM
